Listing of recorded pEC50 by entry.
Target: T1, human CD112R antigen protein huCD112R-His (Acro Biosysterm, PVG-H52H4) (human, UniProt Q6DKI7 41-171)
T1 construct: purchased; also called human antigen protein; not shown: His tag
T1 sequence (looked up): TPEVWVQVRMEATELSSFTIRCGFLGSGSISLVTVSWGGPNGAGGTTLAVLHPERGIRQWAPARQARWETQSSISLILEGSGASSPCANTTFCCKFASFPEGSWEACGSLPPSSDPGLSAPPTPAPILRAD
Assay: ELISA, huCD112R-His coated on plate
On this scale, pEC50 is minus log10 of a concentration expressed in M (mol/L).

In the examples that follow, each entry is paired with its recorded pEC50.
INSERT INTO assay_data (binder, measurement) VALUES
  ('C41 (antibody, human IgG1, kappa, V domains shown) VH: EVQLQQSGPELVKPGASVKISCKASGNTFTDYYINWVKQSHGKSLEWIGDIEPNNGGTNYNQKFKGKATLTVDKSSSTAYMELRSLTSEDSAIYYCATLYFDYWGQGTTLTVSS VL: DIVMTQSPSSLSVSAGEKVTMSCKSSQSLLNSGNQKNYLAWYQQKPGQPPKLLIYGASTRESGVPDRFTGSGSGTDFTLTISSVQAEDLAVYYCQNDHSYPFTFGSGTKLEIKR', 10.48),
  ('C101 (antibody, human IgG1, kappa, V domains shown) VH: EVQLQQSGPELVKPGSSVKISCEASGFTFADYNVDWVKQSHGKSLEWIGAINPNDGGTSYNQKFEGKATLTVDKSSTTAYMELRSLTSEDSAVYYCARWVNNDWYFDVWGTGTTVTVSS VL: DIVMTQSQKFMSTSVGDRVSITCKASQNVRSAVDWYQQKPGQSPKTLIHSASNRHTGVPDRFTGSGSGTDFTLTISNIQSEDLADYFCLQHWNYPYTFGGGTKLEVKR', 10.37);

Per the records, this binder ( C19 (antibody, human IgG1, kappa, V domains shown) VH: EVQLVESGGGLVKPGGSLKLSCAASGFTFSDYYMYWVRQTPEKRLEWVATISDAGGYTYYPDSVKGRFTISRDNARNSLYLQMSSLKSEDTAMYFCGREDLWGQGTSVTVSS VL: DIQMTQSPSSLSASLGERVSLTCRASQDIGYSLNWLQQEPDGSVRRLIYATSRLDSGVPKRFSGSRSGSDYSLTISSLESEDFVDYYCLQYASFPYTFGGGTKLEIKR ) has pEC50 equal to 10.37
